# Measurement target: T1, human TNFR1 on MRC-5 cells (human, UniProt P19438 30-455)
# T1 sequence (looked up): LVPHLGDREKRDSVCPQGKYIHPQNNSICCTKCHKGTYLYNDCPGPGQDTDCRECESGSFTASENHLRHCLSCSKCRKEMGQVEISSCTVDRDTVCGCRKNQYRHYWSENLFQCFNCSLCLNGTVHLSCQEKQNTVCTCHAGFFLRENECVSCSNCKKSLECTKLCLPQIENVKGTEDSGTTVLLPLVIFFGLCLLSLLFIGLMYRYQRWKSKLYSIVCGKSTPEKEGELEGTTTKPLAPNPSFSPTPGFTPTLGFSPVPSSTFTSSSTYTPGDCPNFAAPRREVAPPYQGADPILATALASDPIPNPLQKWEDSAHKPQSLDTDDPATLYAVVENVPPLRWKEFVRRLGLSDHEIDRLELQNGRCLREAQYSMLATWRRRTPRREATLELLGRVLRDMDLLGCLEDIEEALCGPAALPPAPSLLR
# Assay overview: cell-based or functional assay

[
  {
    "Binder": "DMS0135 (bispecific antibody, anti-TNFR1 dAb / AlbudAb in-line fusion) EVQLLESGGGLVQPGGSLRLSCAASGFTFFKYSMGWVRQAPGKGLEWVSQISDTADRTYYSHSVKGRFTISRDNSKNTLYLQMNSLRAEDTAVYYCAIYTGRWVPFEYWGQGTLVTVSSASTDIQMTQSPSSLSASVGDRVTITCRASRPIGTTLSWYQQKPGKAPKLLILWNSRLQSGVPSRFSGSGSGTDFTLTISSLQPEDFATYYCAQAGTHPTTFGQGTKVEIKR",
    "MRC5 ND50 [nM]": 1.17
  },
  {
    "Binder": "DMS0133 (bispecific antibody, anti-TNFR1 dAb / AlbudAb in-line fusion) EVQLLESGGGLVQPGGSLRLSCAASGFTFFKYSMGWVRQAPGKGLEWVSQISDTADRTYYAHSVKGRFTISRDNSKNTLYLQMNSLRAEDTAVYYCAIYTGRWAPFEYWGQGTLVTVSSASTDIQMTQSPSSLSASVGDRVTITCRASRPIGTTLSWYQQKPGKAPKLLILWNSRLQSGVPSRFSGSGSGTDFTLTISSLQPEDFATYYCAQAGTHPTTFGQGTKVEIKR",
    "MRC5 ND50 [nM]": 0.99
  },
  {
    "Binder": "DMS0132 (bispecific antibody, anti-TNFR1 dAb / AlbudAb in-line fusion) EVQLLESGGGLVQPGGSLRLSCAASGFTFVKYSMGWVRQAPGKGLEWVSQISDTADRTYYAHSVKGRFTISRDNSKNTLYLQMNSLRAEDTAVYYCAIYTGRWVPFEYWGQGTLVTVSSASTDIQMTQSPSSLSASVGDRVTITCRASRPIGTTLSWYQQKPGKAPKLLILWNSRLQSGVPSRFSGSGSGTDFTLTISSLQPEDFATYYCAQAGTHPTTFGQGTKVEIKR",
    "MRC5 ND50 [nM]": 1.04
  },
  {
    "Binder": "DMS0134 (bispecific antibody, anti-TNFR1 dAb / AlbudAb in-line fusion) EVQLLESGGGLVQPGGSLRLSCAASGFTFFKYSMGWVRQAPGKGLEWVSQISDTADRTYYAHSVKGRFTISRDNSKNTLYLQMNSLRAEDTAVYYCAIYTGRWVPFEYWGQGTLVTVSSASTDIQMTQSPSSLSASVGDRVTITCRASRPIGTTLSWYQQKPGKAPKLLILWNSRLQSGVPSRFSGSGSGTDFTLTISSLQPEDFATYYCAQAGTHPTTFGQGTKVEIKR",
    "MRC5 ND50 [nM]": 0.96
  }
]
